Test system: brain cancer cell (glioma) U118
Experiment: Brain cancer (glioma) U118 cell growth
Format: cell-based
Settings: 72 hours of incubation

molecule | IC50 [µM]
CCC=CCC=CCC=CCC=CCC=CCC=CCC(CO)C(=O)O (stereo not shown) [226P1] | 290
CCC=CCC=CCC=CCC=CCC=CCC=CCC(OC)C(=O)OC (stereo not shown) [226H1] | 294
CCCCCC=CCC=CCC=CCCCC(CO)C(=O)OCC (stereo not shown) [183Q2] | 392
CCC=CCC=CCC=CCC=CCC=CCCC(OC)C(=O)OCC (stereo not shown) [205I1] | 510

====

Temperature of lamellar-to-hexagonal transition overview
Experiment: Lamellar-to-hexagonal (HII) transition temperature in DEPE model membranes by Differential Scanning Calorimetry
Format: physicochemical
Settings: DEPE membranes, DEPE:D-PUFA 10:1 (mol:mol)
observed.property: Temperature of lamellar-to-hexagonal transition (°C)

compound | unit.label | quantitative.result
CCCCCC=CCC=CCC=CCCCC(OC)C(=O)O (stereo not drawn) | °C | 50.1
CCCCCC=CCC=CCC=CCC=CCCC(OC)C(=O)O (stereo not drawn) | °C | 49.6
CCC=CCC=CCC=CCC=CCC=CCCC(Cl)C(=O)OCC (stereo not drawn) | °C | 48.6
CCC=CCC=CCC=CCC=CCC=CCCC(OP(=O)(OCC)OCC)C(=O)OCC (stereo not drawn) | °C | 48.4
CCCCCC=CCC=CCC=CCCCC(OP(=O)(OCC)OCC)C(=O)OCC (stereo not drawn) | °C | 49.9
CCC=CCC=CCC=CCC=CCC=CCCC(O)C(=O)[O-].[Na+] (stereo not drawn) | °C | 48.3
